method.summary: Toxicity liver stage against HepG2, at 10uM
Format: cell-based
Set-up: test concentration 10 uM, cell line HepG2-A16-CD81EGFP
experimental.conditions: human, HepG2-A16-CD81EGFP cells; read-out: INHIBITION
observable: cytotoxicity at 10 µM (%)
Give a bare numeral; the unit % is implied.

molecule: COc1ccc(C[C@H]2CN(C(=O)c3ccn(C)n3)CC[C@H]2OC)cc1
cytotoxicity at 10 µM [%]: 5.12
--
molecule: O=C(c1cc(-n2cccn2)ccc1Cl)N1CCCC(N2CCCC2)C1 (stereo unspecified)
cytotoxicity at 10 µM [%]: 1.86
--
molecule: CCC(=O)N(CCC(=O)O)Cc1ccc(F)c(F)c1
cytotoxicity at 10 µM [%]: -1.99

Incoming: Name the recorded cytotoxicity at 10 µM of the item CN(C)CCN1CCCC12CCN(C(=O)c1cccnc1)CC2 in your answer.
Outgoing: 4.68

Incoming: Name the recorded cytotoxicity at 10 µM of the item CC(=O)N1CCN(C(=O)CN(C)c2ccc(Cl)cn2)CC1 in your answer.
Outgoing: 1.79

Incoming: Name the recorded cytotoxicity at 10 µM of the item Cc1cccc(CN2CCc3ncnc(N4CCOCC4)c3CC2)n1 in your answer.
Outgoing: -4.95

Incoming: Name the recorded cytotoxicity at 10 µM of the item N#Cc1ccc(S(=O)(=O)NC(=O)c2ccc3c(c2)COC3)cc1 in your answer.
Outgoing: 1.39

Incoming: Name the recorded cytotoxicity at 10 µM of the item CCNc1ncc(C(=O)N(C)CCc2nc3cc(Cl)ccc3[nH]2)cn1 in your answer.
Outgoing: -45.8

Incoming: Name the recorded cytotoxicity at 10 µM of the item CN(C)C(=O)N1CCc2c(CNc3ncccn3)cncc2C1 in your answer.
Outgoing: -3.55

Incoming: Name the recorded cytotoxicity at 10 µM of the item CC(C)N1CCC(CC(=O)NC(C(=O)O)c2ccc(F)cc2)CC1 (stereo unspecified) in your answer.
Outgoing: 0.0453

Incoming: Name the recorded cytotoxicity at 10 µM of the item CCC(=O)N1CSCC1C(=O)N(C)CCc1ccccc1 (stereo unspecified) in your answer.
Outgoing: 19.5
